Origin of measurements: patent US10457687B2

test-system: Mcl-1 protein (Homo sapiens, UniProt Q07820)
Sequence (Q07820 whole entry): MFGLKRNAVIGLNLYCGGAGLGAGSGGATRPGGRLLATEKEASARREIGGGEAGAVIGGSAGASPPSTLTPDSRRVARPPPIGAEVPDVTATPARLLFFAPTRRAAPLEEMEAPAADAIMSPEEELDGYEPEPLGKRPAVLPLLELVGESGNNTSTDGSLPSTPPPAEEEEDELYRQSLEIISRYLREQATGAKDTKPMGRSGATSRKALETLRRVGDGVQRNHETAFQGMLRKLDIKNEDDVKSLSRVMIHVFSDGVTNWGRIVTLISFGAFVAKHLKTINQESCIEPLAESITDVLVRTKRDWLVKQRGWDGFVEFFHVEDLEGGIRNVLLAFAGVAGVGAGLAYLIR
protocol-text: Inhibition of Mcl-1 by the fluorescence polarisation technique (Method 1 or Method 2)
Assay type: binding
assay-setup: partial inhibitors; @ 50 μM test compound
property-name: percentage fluorescence polarisation inhibition, Mcl-1 FP (% @ 50 μM)

compound="CCc1sc2ncnc(N[C@H](Cc3ccccc3OCCN3CCN(C)CC3)C(=O)O)c2c1-c1cccc(Cl)c1C [Example 153]" reading_unit="% @ 50 μM" readout_value=75.7
compound="Cc1c(Cl)cccc1-c1c(C(C)C)sc2ncnc(N[C@@H](Cc3ccccc3)C(=O)O)c12 [Example 218]" reading_unit="% @ 50 μM" readout_value=71.5
compound="CCc1sc2ncnc(N[C@H](Cc3ccccc3OCCN(C)C)C(=O)O)c2c1-c1cccc(Cl)c1C [Example 155]" reading_unit="% @ 50 μM" readout_value=63.15
compound="CCc1sc2ncnc(N[C@H](Cc3ccccc3C#N)C(=O)O)c2c1-c1cccc(Cl)c1C [Example 126]" reading_unit="% @ 50 μM" readout_value=41.2
compound="CCc1sc2ncnc(N[C@H](Cc3ccccc3C(F)(F)F)C(=O)O)c2c1-c1cccc(Cl)c1C [Example 137]" reading_unit="% @ 50 μM" readout_value=71.05
compound="CCc1sc2ncnc(NC(Cc3ccccc3)C(=O)O)c2c1-c1cccc2c1c(Cl)cn2CCN1CCCCC1 (stereo not shown) [Example 234]" reading_unit="% @ 50 μM" readout_value=68.7
compound="CCc1sc2ncnc(N[C@H](C(=O)O)[C@H](O)c3ccccc3)c2c1-c1cccc(Cl)c1C [Example 124]" reading_unit="% @ 50 μM" readout_value=75.7

----------
test-system: Mcl-1 protein (Homo sapiens, UniProt Q07820)
protocol-text: Inhibition of Mcl-1 by the fluorescence polarisation technique (Method 1 or Method 2)
Format: binding
assay-setup: partial inhibitors; @ 200 μM test compound
Readings of percentage fluorescence polarisation inhibition, Mcl-1 FP for the listed compounds
property-name: percentage fluorescence polarisation inhibition, Mcl-1 FP

compound=CCc1sc2ncnc(N[C@H](Cc3c[nH]c4ccccc34)C(=O)O)c2c1-c1cccc2ccccc12 readout_value="76.8% @ 200 μM"
compound="CCc1sc2ncnc(NC(Cc3ccccc3)C(=O)OC)c2c1-c1cccc2ccccc12 (stereo not shown)" readout_value="41.08% @ 200 μM"
compound=O=C(O)[C@@H](Cc1ccccc1)Nc1ncnc2sc(CO)c(-c3cccc4ccccc34)c12 readout_value="54.1% @ 200 μM"
compound="CC(C)(O)c1sc2ncnc(NC(Cc3ccccc3)C(=O)O)c2c1-c1cccc2ccccc12 (stereo not shown)" readout_value="56.85% @ 200 μM"
compound=CCc1sc2ncnc(N[C@H](Cc3ccccc3)C(=O)O)c2c1-c1ccnc(Cl)c1C readout_value="75.45% @ 200 μM"
compound=CCc1sc2ncnc(N[C@H](Cc3ccccc3)C(=O)OC)c2c1-c1cccc2ccccc12 readout_value="22.08% @ 200 μM"
compound=CCc1sc2ncnc(N[C@H](Cc3ccccc3)C(=O)O)c2c1-c1cccc2cnn(C)c12 readout_value="72.13% @ 200 μM"

----------
test-system: Mcl-1 protein (Homo sapiens, UniProt Q07820)
protocol-text: Inhibition of Mcl-1 by the fluorescence polarisation technique (Method 1 or Method 2)
Assay type: binding
assay-setup: fluorescence polarisation, Fluorescein labelled ligand; Method 1 (not underlined) or Method 2 (underlined); read-out: IC50 (μM) Mcl-1 FP
property-name: IC50

compound="CCc1sc2ncnc(NC(Cc3ccccc3)C(=O)O)c2c1-c1cccc2ccn(C)c12 (stereo not shown) [Example 84]" test_system="Mcl-1 protein (Homo sapiens, UniProt Q07820)" readout_value="4.02 µM"
compound="CCc1sc2ncnc(N[C@H](CC3CCCCC3)C(=O)O)c2c1-c1cccc2[nH]ccc12 (single isomer, unassigned) [Example 242]" test_system="Mcl-1 protein (Homo sapiens, UniProt Q07820)" readout_value="0.091 µM"
compound="CCc1sc2ncnc(NC(Cc3ccccc3)C(=O)O)c2c1-c1ccc(OCCN2CCN(C)CC2)c(Cl)c1C (stereo not shown)" test_system="Mcl-1 protein (Homo sapiens, UniProt Q07820)" readout_value="0.06 µM"
compound="C=C(C)c1sc2ncnc(NC(Cc3ccccc3)C(=O)O)c2c1-c1cccc2ccccc12 (stereo not shown) [Example 106]" test_system="Mcl-1 protein (Homo sapiens, UniProt Q07820)" readout_value="0.065 µM"

----------
Readings of percentage fluorescence polarisation inhibition, Mcl-1 FP for the listed compounds
test-system: UniProt Q07820
protocol-text: Inhibition of Mcl-1 by the fluorescence polarisation technique (Method 1 or Method 2)
Assay type: binding
assay-setup: partial inhibitors; @ 50 μM test compound
property-name: percentage fluorescence polarisation inhibition, Mcl-1 FP (% @ 50 μM)

compound="CCc1sc2ncnc(NC(Cc3ccccc3OCCC3CCCC3)C(=O)O)c2c1-c1cccc(Cl)c1C (stereo not drawn) [Example 143]" readout_value=68.85
compound="CCc1sc2ncnc(N[C@H](Cc3ccccc3OCCCN(C)C)C(=O)O)c2c1-c1cccc(Cl)c1C [Example 157]" readout_value=62.05
compound="CCc1sc2ncnc(N[C@H](Cc3ccccc3)C(=O)O)c2c1-c1cccc2c1c(Cl)cn2CCN(C)C [Example 231]" readout_value=56.75

----------
test-system: Mcl-1 protein (Homo sapiens)
protocol-text: Inhibition of Mcl-1 by the fluorescence polarisation technique (Method 1 or Method 2)
Type: binding
assay-setup: fluorescence polarisation, Fluorescein labelled ligand; Method 1 (not underlined) or Method 2 (underlined); read-out: IC50 (μM) Mcl-1 FP
# note: exactly 1 µM is not below, so it is not fulfilled; use fulfilled for IC50 strictly under it

compound="CCCc1sc2ncnc(NC(Cc3ccccc3)C(=O)O)c2c1-c1cccc2ccccc12 (stereo not shown) [Example 253]" assigned_label="not fulfilled"
compound="CCc1sc2ncnc(NC(Cc3ccccc3)C(=O)O)c2c1-c1cncc2ccccc12 (stereo not shown) [Example 82]" assigned_label="not fulfilled"
compound="CCc1sc2ncnc(N[C@H](Cc3cccc4ccccc34)C(=O)O)c2c1-c1cccc2ccccc12 (single isomer, unassigned) [Example 187]" assigned_label="not fulfilled"
compound="CCc1sc2ncnc(NC(Cc3c(F)cccc3F)C(=O)O)c2c1-c1cccc(Cl)c1C (stereo not shown)" assigned_label=fulfilled
compound="COc1ccccc1CC(Nc1ncnc2sc(-c3ccc(F)cc3)c(-c3ccc(OCCN4CCN(C)CC4)c(Cl)c3C)c12)C(=O)O (stereo not shown)" assigned_label=fulfilled
compound="Cc1c(-c2c(-c3ccc(F)cc3)sc3ncnc(NC(Cc4ccccc4OCc4ccnn4C)C(=O)O)c23)ccc(OCCN2CCN(C)CC2)c1Cl (stereo not shown)" assigned_label=fulfilled
compound="CCc1sc2ncnc(NC(Cc3ccccc3)C(=O)O)c2c1-c1cccc2c1c(Cl)cn2CCN1CCOCC1 (stereo not shown) [Example 237]" assigned_label=fulfilled

----------
test-system: Mcl-1 protein (Homo sapiens)
protocol-text: Inhibition of Mcl-1 by the fluorescence polarisation technique (Method 1 or Method 2)
Type: binding
assay-setup: fluorescence polarisation, Fluorescein labelled ligand; Method 1 (not underlined) or Method 2 (underlined); read-out: IC50 (μM) Mcl-1 FP
property-name: log10 of IC50 (log10 of the value in µM)

molecule="CCc1sc2ncnc(N[C@H](Cc3cn(C)cn3)C(=O)O)c2c1-c1cccc2ccccc12 [Example 194]" readout_value=0.24
molecule="Cc1c(-c2c(-c3ccc(F)o3)sc3ncnc(NC(Cc4ccccc4O)C(=O)O)c23)ccc(OCCN2CCN(C)CC2)c1Cl (centres unmarked) [Example 14]" readout_value=-1.42
molecule="CCc1sc2ncnc(NC(Cc3ccc(F)cc3)C(=O)O)c2c1-c1cccc2ccccc12 (centres unmarked) [Example 176]" readout_value=0.92
molecule="CCc1sc2ncnc(NC(Cc3ccccc3)C(=O)O)c2c1-c1ccc(OCC(=O)O)c(Cl)c1C (centres unmarked) [Example 57]" readout_value=-0.97
molecule="Cc1c(-c2c(-c3ccc(F)o3)sc3ncnc(NC(Cc4ccccc4OCc4ccnc(OCC(F)(F)F)n4)C(=O)O)c23)ccc(OCCN2CCN(C)CC2)c1Cl (centres unmarked) [Example 26]" readout_value=-1.92
molecule="CCc1sc2ncnc(NC(CC3CCCCC3)C(=O)O)c2c1-c1cccc2ccccc12 (centres unmarked) [Example 165]" readout_value=-0.50
molecule="CCc1sc2ncnc(NC(Cc3ccccc3F)C(=O)O)c2c1-c1cccc2ccccc12 (centres unmarked) [Example 181]" readout_value=-0.52
molecule="Cc1sc2ncnc(N[C@H](Cc3ccccc3)C(=O)O)c2c1-c1cccc2ccccc12 [Example 196]" readout_value=0.46
molecule="CCc1sc2ncnc(N[C@](C)(Cc3ccccc3)C(=O)O)c2c1-c1cccc(Cl)c1C [Example 119]" readout_value=0.16
molecule="CCc1sc2ncnc(NC(Cc3ccccc3)C(=O)O)c2c1-c1cccc(Br)c1C (centres unmarked) [Example 96]" readout_value=0.21
molecule="Cc1c(-c2c(-c3ccsc3)sc3ncnc(NC(Cc4ccccn4)C(=O)O)c23)ccc(OCCN2CCOCC2)c1Cl (centres unmarked) [Example 36]" readout_value=-1.07
molecule="CCc1sc2ncnc(NC(Cc3ccccc3OCCN3CCN(C)CC3)C(=O)O)c2c1-c1cccc(Cl)c1C (centres unmarked) [Example 154]" readout_value=0.37
molecule="Cc1c(-c2c(-c3ccco3)sc3ncnc(NC(Cc4ccccc4OCc4ccccn4)C(=O)O)c23)ccc(OCCN2CCN(C)CC2)c1Cl (centres unmarked) [Example 12]" readout_value=-1.85
molecule="CCc1sc2ncnc(N[C@H](Cc3ccccc3)C(=O)O)c2c1-c1cccc2cc[nH]c12 (single isomer, unassigned) [Example 72]" readout_value=1.08
molecule="CCc1sc2ncnc(NC(Cc3ccccc3)C(=O)O)c2c1-c1cccc2c1c(Cl)cn2CCN(C)C (centres unmarked) [Example 230]" readout_value=0.51
molecule="Cc1c(-c2c(-c3ccsc3)sc3ncnc(NC(Cc4ccccc4F)C(=O)O)c23)ccc(OCCN2CCN(C)CC2)c1Cl (centres unmarked) [Example 34]" readout_value=-0.14
molecule="CCOc1nccc(COc2ccccc2CC(Nc2ncnc3sc(-c4ccc(F)o4)c(-c4ccc(OCCN5CCN(C)CC5)c(Cl)c4C)c23)C(=O)O)n1 (centres unmarked) [Example 22]" readout_value=-2.70
molecule="Cc1c(Cl)cccc1-c1c(C2CC2)sc2ncnc(NC(Cc3ccccc3)C(=O)O)c12 (centres unmarked) [Example 217]" readout_value=-1.19
molecule="CCc1sc2ncnc(NC(Cc3ccccc3OCC(=O)N(C)C)C(=O)O)c2c1-c1cccc(Cl)c1C (centres unmarked) [Example 142]" readout_value=-0.47
molecule="CCOc1nccc(COc2ccccc2CC(Nc2ncnc3sc(-c4ccc(F)cc4)c(-c4ccc(OCCN5CCN(C)CC5)c(Cl)c4C)c23)C(=O)O)n1 (centres unmarked) [Example 4]" readout_value=-2.30
molecule="O=C(O)C(Cc1ccccc1)Nc1ncnc2sc(CO)c(-c3cccc4ccccc34)c12 (centres unmarked) [Example 198]" readout_value=0.99
molecule="CCc1sc2ncnc(NC(Cc3ccccc3)C(=O)O)c2c1-c1cccc2ccccc12 (centres unmarked) [Example 101]" readout_value=-0.34
molecule="CC(O)c1sc2ncnc(N[C@H](Cc3ccccc3)C(=O)O)c2c1-c1cccc2ccccc12 (single isomer, unassigned) [Example 206]" readout_value=0.95
molecule="Cc1c(-c2c(-c3ccc(F)cc3)sc3ncnc(NC(Cc4ccccc4OCc4ccnc(-c5ccccc5F)n4)C(=O)O)c23)ccc(OCCN(C)C)c1Cl (centres unmarked) [Example 50]" readout_value=-2.15
molecule="CCc1sc2ncnc(NC(Cc3ccccc3)C(=O)O)c2c1-c1cc(Cl)c(O)c(Cl)c1C (centres unmarked) [Example 52]" readout_value=-0.52
molecule="CCc1sc2ncnc(NC(Cc3ccccc3OCCCN(C)C)C(=O)O)c2c1-c1cccc(Cl)c1C (centres unmarked) [Example 158]" readout_value=-0.98
molecule="CC(=O)c1sc2ncnc(NC(Cc3ccccc3)C(=O)O)c2c1-c1cccc2ccccc12 (centres unmarked) [Example 199]" readout_value=-0.53
molecule="CCCc1sc2ncnc(NC(Cc3ccccc3)C(=O)O)c2c1-c1cccc2ccccc12 (centres unmarked) [Example 252]" readout_value=-0.65
molecule="CC#Cc1sc2ncnc(NC(Cc3ccccc3OCc3ccnc(-c4ccccc4OC)n3)C(=O)O)c2c1-c1ccc(OCCN2CCN(C)CC2)c(Cl)c1C (centres unmarked) [Example 45]" readout_value=-2.30
